- assay comment: Blood concentration and oral BA in monkey after single intravenous or oral dose (Test Example 4)
- Format: in vivo, female Macaca irus (monkey)
- condition parameters: female, Macaca irus (cynomolgus), blood, single dose 1.6 mg/kg intravenous, one monkey, read-out: AUC0-∞ Intravenous
value kind: AUC(0-inf) (ng·h/mL)

compound=CC(=O)O[C@@]12CO[C@@H]1CC[C@@]1(C)[C@@H]3O[C@H](CN4CCOCC4)O[C@@H]3C3=C(C)[C@@H](OC(=O)[C@H](O)[C@@H](NC(=O)OC(C)(C)C)c4ccccn4)C[C@@](O)([C@@H](OC(=O)c4ccccc4)[C@@H]12)C3(C)C value_kind=AUC(0-inf) measured=394

====

- assay comment: Blood concentration and oral BA in monkey after single intravenous or oral dose (Test Example 4)
- Assay type: in vivo, female Macaca irus (monkey)
- condition parameters: female, Macaca irus (cynomolgus), blood, single dose 1.8 mg/kg intravenous, average of 4 monkeys, read-out: AUC0-∞ Intravenous
value kind: AUC(0-inf) (ng·h/mL)

compound=CC(=O)O[C@@]12CO[C@@H]1CC[C@@]1(C)[C@@H]3O[C@H](CN(C)C)O[C@@H]3C3=C(C)[C@@H](OC(=O)[C@H](O)[C@@H](NC(=O)OC(C)(C)C)c4ncccc4F)C[C@@](O)([C@@H](OC(=O)c4ccccc4)[C@@H]12)C3(C)C measured=994

====

- assay comment: Blood concentration and oral BA in monkey after single intravenous or oral dose (Test Example 4)
- Format: in vivo, female Macaca irus (monkey)
- condition parameters: female, Macaca irus (cynomolgus), blood, single dose 1.8 mg/kg oral, average of 4 monkeys, read-out: AUC0-∞ Oral
value kind: AUC(0-inf) (ng·h/mL)

compound=CC(=O)O[C@@]12CO[C@@H]1CC[C@@]1(C)[C@@H]3O[C@H](CN(C)C)O[C@@H]3C3=C(C)[C@@H](OC(=O)[C@H](O)[C@@H](NC(=O)OC(C)(C)C)c4ncccc4F)C[C@@](O)([C@@H](OC(=O)c4ccccc4)[C@@H]12)C3(C)C measured=621
